These measurements were taken from patent US20250353911A1.

- Experimental Target: T1, Rat serum albumin (RSA) (rat, UniProt P02770 25-608)
- T1 construct: Bought protein (Sigma); also called rat albumin
- T1 sequence (P02770 25-608): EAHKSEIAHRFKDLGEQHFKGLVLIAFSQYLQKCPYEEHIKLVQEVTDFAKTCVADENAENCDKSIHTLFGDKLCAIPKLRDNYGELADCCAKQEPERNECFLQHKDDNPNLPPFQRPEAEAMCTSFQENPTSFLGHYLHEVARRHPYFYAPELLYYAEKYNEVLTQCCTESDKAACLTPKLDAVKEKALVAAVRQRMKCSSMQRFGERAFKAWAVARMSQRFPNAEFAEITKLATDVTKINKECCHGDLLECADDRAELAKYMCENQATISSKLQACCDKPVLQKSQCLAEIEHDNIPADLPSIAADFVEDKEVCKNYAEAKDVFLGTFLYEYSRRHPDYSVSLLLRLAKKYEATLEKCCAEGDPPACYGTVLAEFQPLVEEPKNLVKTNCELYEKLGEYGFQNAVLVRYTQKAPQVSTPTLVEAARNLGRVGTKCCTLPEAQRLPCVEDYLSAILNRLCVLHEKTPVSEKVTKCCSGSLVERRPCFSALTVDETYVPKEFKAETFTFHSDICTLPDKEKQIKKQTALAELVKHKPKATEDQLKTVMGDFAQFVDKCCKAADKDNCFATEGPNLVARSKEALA
- Assay Notes: ELISA on coated rat albumin, anti-human Fc HRP, A650, one site-total binding fit
Property Name: pKd
// scale note: pKd = -log10(conc_M); give the bare number

Query string: # get_value(readout='pKd', item= 4A01v3-7 (Fc fusion, also called Hz4A01v3-7; not shown: Human Fc carrier and its linker) VHH: EVQLVESGGGEVQPGGSLRLSCAASGFAFSTSGMVWVRQAPGKGLEWVSTISDDARIIRYAESVKGRFTISRDNAKNTVYLQMNSLRAEDTAVYYCATYRAGSRIGSYEDYYRGQGTLVTVKP )
Result string: 9.91
